Test system: STAPHYLOCOCCUS AUREUS CMX 642A
Test: In vitro antibacterial activity, MIC, BHI agar dilution
Type: cell-based
Conditions: S. aureus CMX 642A, unit assumed

# molecule, MIC (µg/mL)
measured = [
    ("CCC1OC(=O)C(C)C(=O)C(C)C(OC2OC(C)CC(N(C)C)C2O)C(C)(OC)CC(C)C2=NC(COCc3cc(OC)cc(OC)c3)CN3C(=O)OC1(C)C3C2C (stereo not shown) [Example 100]", 0.2),
    ("CC[C@H]1OC(=O)[C@H](C)C(=O)[C@H](C)[C@@H](O[C@@H]2O[C@H](C)C[C@H](N(C)C)[C@H]2O)[C@](C)(OC)C[C@@H](C)C2=N[C@H](COCc3cccc(Cl)c3)CN3C(=O)O[C@@]1(C)[C@H]3[C@H]2C [Example 80]", 0.39),
    ("CC[C@H]1OC(=O)[C@H](C)C[C@H](C)[C@@H](O[C@@H]2O[C@H](C)C[C@H](N(C)C)[C@H]2O)[C@](C)(OC)C[C@@H](C)C2=NCCN3C(=O)O[C@@]1(C)[C@H]3[C@H]2C [Example 1]", 6.2),
    ("CC[C@H]1OC(=O)[C@H](C)C(=O)[C@H](C)[C@@H](O[C@@H]2O[C@H](C)C[C@H](N(C)C)[C@H]2O)[C@](C)(OC)C[C@@H](C)C2=NC3CN(CCCc4ccccc4)CC3N3C(=O)O[C@@]1(C)[C@H]3[C@H]2C (stereo partly shown) [Example 112]", 0.78),
]

----------
System: STREPTOCOCCUS PYOGENES EES61
Assay: In vitro antibacterial activity, MIC, BHI agar dilution
Format: cell-based
Conditions: S. pyogenes EES61, unit assumed
assay_metric: MIC (µg/mL)

# molecule, observed
measured = [
    ("CC[C@H]1OC(=O)[C@H](C)C(=O)[C@H](C)[C@@H](O[C@@H]2O[C@H](C)C[C@H](N(C)C)[C@H]2O)[C@](C)(OC)C[C@@H](C)C2=NCC(CNCc3ccccc3)N3C(=O)O[C@@]1(C)[C@H]3[C@H]2C (some centres unmarked)", 0.02),
    ("CC[C@H]1OC(=O)[C@H](C)C(=O)[C@H](C)[C@@H](O[C@@H]2O[C@H](C)C[C@H](N(C)C)[C@H]2O)[C@](C)(OC)C[C@@H](C)C2=NC3CN(CCOC)CC3N3C(=O)O[C@@]1(C)[C@H]3[C@H]2C (some centres unmarked)", 0.05),
]

----------
System: STAPHYLOCOCCUS EPIDERMIDIS 3519
Type: cell-based
Settings: S. epidermidis 3519; BHI agar; unit assumed
The following compounds are listed with their measured MIC values.
assay_metric: MIC (µg/mL)

# compound, unit_abbreviation, observed
data = [
    ("CCC1OC(=O)C(C)C(=O)C(C)C(OC2OC(C)CC(N(C)C)C2O)C(C)(OC)CC(C)C2=NC(CN(C)C)CN3C(=O)OC1(C)C3C2C (stereo not drawn)", "µg/mL", 0.39),
    ("C=CCN1CC2N=C3[C@H](C)C[C@@](C)(OC)[C@H](O[C@@H]4O[C@H](C)C[C@H](N(C)C)[C@H]4O)[C@@H](C)C(=O)[C@@H](C)C(=O)O[C@H](CC)[C@@]4(C)OC(=O)N(C2C1)[C@@H]4[C@H]3C (stereo partly drawn)", "µg/mL", 0.78),
    ("CC[C@H]1OC(=O)[C@H](C)C(=O)[C@H](C)[C@@H](O[C@@H]2O[C@H](C)C[C@H](N(C)C)[C@H]2O)[C@](C)(OC)C[C@@H](C)C2=NC3CN(CCc4ccc(N)cc4)CC3N3C(=O)O[C@@]1(C)[C@H]3[C@H]2C (stereo partly drawn)", "µg/mL", 0.78),
    ("CC[C@H]1OC(=O)[C@H](C)C(=O)[C@H](C)[C@@H](O[C@@H]2O[C@H](C)C[C@H](N(C)C)[C@H]2O)[C@](C)(OC)C[C@@H](C)C2=NC3CN(CCc4ccccc4[N+](=O)[O-])CC3N3C(=O)O[C@@]1(C)[C@H]3[C@H]2C (stereo partly drawn)", "µg/mL", 0.39),
    ("CC[C@H]1OC(=O)[C@H](C)C(=O)[C@H](C)[C@@H](O[C@@H]2O[C@H](C)C[C@H](N(C)C)[C@H]2O)[C@](C)(OC)C[C@@H](C)C2=N[C@H](C)[C@H](C)N3C(=O)O[C@@]1(C)[C@H]3[C@H]2C", "µg/mL", 0.39),
    ("CC[C@H]1OC(=O)[C@H](C)C(=O)[C@H](C)[C@@H](O[C@@H]2O[C@H](C)C[C@H](N(C)C)[C@H]2O)[C@](C)(OC)C[C@@H](C)C2=N[C@@H](COCc3ccncc3)CN3C(=O)O[C@@]1(C)[C@H]3[C@H]2C", "µg/mL", 0.39),
    ("CC[C@H]1OC(=O)[C@H](C)C(=O)[C@H](C)[C@@H](O[C@@H]2O[C@H](C)C[C@H](N(C)C)[C@H]2O)[C@](C)(OC)C[C@@H](C)C2=N[C@H](COCc3ccc(C#N)cc3)CN3C(=O)O[C@@]1(C)[C@H]3[C@H]2C", "µg/mL", 0.2),
    ("CC[C@H]1OC(=O)[C@H](C)C(=O)[C@H](C)[C@@H](O[C@@H]2O[C@H](C)C[C@H](N(C)C)[C@H]2O)[C@](C)(OC)C[C@@H](C)C2=N[C@H](COCc3ccncc3)CN3C(=O)O[C@@]1(C)[C@H]3[C@H]2C", "µg/mL", 0.39),
    ("CC[C@H]1OC(=O)[C@H](C)C(=O)[C@H](C)[C@@H](O[C@@H]2O[C@H](C)C[C@H](N(C)C)[C@H]2O)[C@](C)(OC)C[C@@H](C)C2=NC3CCCC3N3C(=O)O[C@@]1(C)[C@H]3[C@H]2C (stereo partly drawn)", "µg/mL", 0.78),
]

----------
Tested on: STAPHYLOCOCCUS AUREUS CMX 642A
Test: In vitro antibacterial activity, MIC, BHI agar dilution
Type: cell-based
Details: S. aureus CMX 642A, unit assumed
# maps each entry to its MIC

# compound, MIC (µg/mL)
measured = [
    ("CC[C@H]1OC(=O)[C@H](C)C(=O)[C@H](C)[C@@H](O[C@@H]2O[C@H](C)C[C@H](N(C)C)[C@H]2O)[C@](C)(OC)C[C@@H](C)C2=N[C@H](CO)CN3C(=O)O[C@@]1(C)[C@H]3[C@H]2C", 0.78),
    ("CC[C@H]1OC(=O)[C@H](C)C(=O)[C@H](C)[C@@H](O[C@@H]2O[C@H](C)C[C@H](N(C)C)[C@H]2O)[C@](C)(OC)C[C@@H](C)C2=N[C@@H](COCc3ccccc3)CN3C(=O)O[C@@]1(C)[C@H]3[C@H]2C", 0.39),
    ("CC[C@H]1OC(=O)[C@H](C)C(=O)[C@H](C)[C@@H](O[C@@H]2O[C@H](C)C[C@H](N(C)C)[C@H]2O)[C@](C)(OC)C[C@@H](C)C2=NCC(COC(=O)c3ccc4ccccc4n3)N3C(=O)O[C@@]1(C)[C@H]3[C@H]2C (stereo partly drawn)", 0.2),
    ("CC[C@H]1OC(=O)[C@H](C)C(=O)[C@H](C)[C@@H](O[C@@H]2O[C@H](C)C[C@H](N(C)C)[C@H]2O)[C@](C)(OC)C[C@@H](C)C2=NCC(COC(=O)c3cc4ccccc4n3C)N3C(=O)O[C@@]1(C)[C@H]3[C@H]2C (stereo partly drawn)", 0.2),
    ("CC[C@H]1OC(=O)[C@H](C)C(=O)[C@H](C)[C@@H](O[C@@H]2O[C@H](C)C[C@H](N(C)C)[C@H]2O)[C@](C)(OC)C[C@@H](C)C2=N[C@H](COCc3cccnc3)CN3C(=O)O[C@@]1(C)[C@H]3[C@H]2C", 0.39),
    ("CC[C@H]1OC(=O)[C@H](C)C(=O)[C@H](C)[C@@H](O[C@@H]2O[C@H](C)C[C@H](N(C)C)[C@H]2O)[C@](C)(OC)C[C@@H](C)C2=N[C@H](COCCN3CCOCC3)CN3C(=O)O[C@@]1(C)[C@H]3[C@H]2C", 1.56),
]

----------
System: STAPHYLOCOCCUS AUREUS CMX 642A
Assay: In vitro antibacterial activity, MIC, BHI agar dilution
Format: cell-based
Details: S. aureus CMX 642A, unit assumed
assay_metric: MIC (µg/mL)

# compound, assay_metric, observed
measured = [
    ("CCC1OC(=O)C(C)C(=O)C(C)C(OC2OC(C)CC(N(C)C)C2O)C(C)(OC)CC(C)C2=NC(c3ccccc3)C(c3ccccc3)N3C(=O)OC1(C)C3C2C (stereo not drawn)", "MIC", 3.1),
    ("CC[C@H]1OC(=O)[C@H](C)C(=O)[C@H](C)[C@@H](O[C@@H]2O[C@H](C)C[C@H](N(C)C)[C@H]2O)[C@](C)(OC)C[C@@H](C)C2=N[C@H](COCc3ccc(Cl)cc3)CN3C(=O)O[C@@]1(C)[C@H]3[C@H]2C", "MIC", 0.39),
    ("CC[C@H]1OC(=O)[C@H](C)C(=O)[C@H](C)[C@@H](O[C@@H]2O[C@H](C)C[C@H](N(C)C)[C@H]2O)[C@](C)(OC)C[C@@H](C)C2=NCC(COC(=O)c3ccc([N+](=O)[O-])cc3)N3C(=O)O[C@@]1(C)[C@H]3[C@H]2C (stereo partly drawn)", "MIC", 0.1),
]

src = patent US6274715A
